Would you kindly list normalized growth for each of these molecules?
assayOverview: chemical genetic growth profiling, strain panel (AID 1159580);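 further: tested at 20 µM; growth read once vehicle control cultures reached saturation at 30 °C; 1 = growth at the plate median or of vehicle wells; lower values mean less growth of the strain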
conditionInfo: S. cerevisiae deletion strains, growth OD, locus YLR371W, strain rom2, active compounds read low
About 2,000 (36%) of roughly 5,500 compounds were called active. Not shown: some 18% with an inconclusive outcome. The list shows a part of the results.
In your answer, state the number alone without any accompanying words.

(Q) Given CC(C)NCC(O)c1cc(O)cc(O)c1 (stereo not given) , state its recorded normalized growth.
(A) 1

(Q) Now the molecule O=c1cc[nH]c(=S)[nH]1
(A) 0.996

(Q) Now the molecule CC(=O)N[C@@H](CS)C(=O)O
(A) 1.03

(Q) Now the molecule C=C1C(=O)OC2CC1C(OC(C)=O)C/C(C)=C/CC/C(C)=C/CC[C@]2(C)O (stereo not given in full)
(A) 1.02

(Q) Now the molecule NC(N)=NS(=O)(=O)c1ccc(N)cc1
(A) 0.993

====

Would you kindly list normalized growth for each of these compounds?
assayOverview: chemical genetic growth profiling, strain panel (AID 1159580);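 further: tested at 20 µM; growth read once vehicle control cultures reached saturation at 30 °C; 1 = growth at the plate median or of vehicle wells; lower values mean less growth of the strain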
conditionInfo: S. cerevisiae deletion strains, growth OD, locus YDL134C, strain PPH21, active compounds read low
Out of some 5,500 compounds screened, about 2,000 (36%) were called active. Inconclusive results (about 18%) are left out. The list shows a part of the results.
In your answer, state the number alone without any accompanying words.

(Q) Given C#CCCCCCCCCCCCC(=O)CC(O)COC(C)=O (stereo unspecified) , state its recorded normalized growth.
(A) 0.807

(Q) Now the compound CC[N+](CC)(CC)CCOc1cccc(OCC[N+](CC)(CC)CC)c1OCC[N+](CC)(CC)CC
(A) 1

(Q) Now the compound CCOC(=O)Nc1ccsc1C(=O)OC
(A) 1

(Q) Now the compound CSC(=NC#N)N1CCN(c2ccc([N+](=O)[O-])cn2)CC1
(A) 0.987

(Q) Now the compound O=C1CCC(c2cccs2)=NN1
(A) 1

(Q) Now the compound CCCNC1CCc2nc(N)sc2C1 (stereo unspecified)
(A) 1.01

(Q) Now the compound O=C(O)c1cc2cc(Cc3cccnc3)ccc2o1
(A) 0.993

(Q) Now the compound CC(C)NC[C@H](O)COc1cccc2ccccc12
(A) 0.979

(Q) Now the compound Cc1cccc2c1N(C(=S)Nc1ccccc1Cl)CCC2
(A) 0.911

(Q) Now the compound COc1ccc2c(c1OC)C(=O)OC2[C@H]1c2c(cc3c(c2OC)OCO3)CCN1C (stereo partly specified)
(A) 1.01

(Q) Now the compound CCOC(=O)Cn1c(=O)c(C#N)cn(C(C)C)c1=O
(A) 1.01

(Q) Now the compound Nc1nc2ncc(=O)[nH]c2c(=O)[nH]1
(A) 1

(Q) Now the compound COc1ccc(C(C)=O)cc1CSC(=NS(=O)(=O)c1ccccc1)Nc1cccc(F)c1
(A) 0.994

(Q) Now the compound c1ccc(-c2cc3c(ccc4nonc43)nn2)cc1
(A) 0.991

(Q) Now the compound CC1OC1P(=O)(O)O (stereo unspecified)
(A) 0.977

(Q) Now the compound COc1ccc(CCN2CCC(Nc3nc4ccccc4n3Cc3ccc(F)cc3)CC2)cc1
(A) 0.983

(Q) Now the compound COc1cc([C@@H]2c3cc4c(c(O)c3C[C@H]3COC(=O)[C@@H]32)OCO4)cc(OC)c1OC
(A) 0.997

(Q) Now the compound NS(=O)(=O)c1cc2c(cc1Cl)NC(C(Cl)Cl)NS2(=O)=O (stereo unspecified)
(A) 1.02

(Q) Now the compound O=[N+]([O-])c1ccc(N2CCCN(C(=S)Nc3ccc(Cl)cc3Cl)CC2)nc1
(A) 0.979

(Q) Now the compound CC(C)C(C)/C=C/C(C)C1CCC2C3=CC=C4CC(O)CCC4(C)C3CCC21C (stereo unspecified)
(A) 0.86

(Q) Now the compound COc1ccc2c(c1)CCC(c1ccccc1)=C2c1ccc(OCCN2CCCC2)cc1
(A) 0.407

(Q) Now the compound CC[C@H](C)C(=O)O[C@H]1CCC=C2C=C[C@H](C)C(CCC3C[C@@H](O)CC(=O)O3)[C@H]21 (stereo partly specified)
(A) 1.01

(Q) Now the compound COC(=O)c1sccc1-c1ccc(C(C)=O)o1
(A) 0.974

(Q) Now the compound Cc1cc(-c2ccccc2)nnc1NCCN1CCOCC1
(A) 1.01

(Q) Now the compound CCCC(=O)O[C@]1(C(=O)CO)CCC2[C@@H]3CCC4=CC(=O)CC[C@]4(C)C3[C@@H](O)C[C@@]21C (stereo partly specified)
(A) 1.01

(Q) Now the compound CC1C[C@H]2CC(=O)[C@H]3CCCN4CCC[C@H]2[C@]34C1 (stereo partly specified)
(A) 1.01

====

assayOverview: chemical genetic growth profiling, strain panel (AID 1159580);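 further: tested at 20 µM; growth read once vehicle control cultures reached saturation at 30 °C; 1 = growth at the plate median or of vehicle wells; lower values mean less growth of the strain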
conditionInfo: S. cerevisiae deletion strains, growth OD, locus YHR094C, strain hxt1, active compounds read low
Screen size: about 5,500 compounds; about 2,000 (36%) were called active. About 18% were inconclusive and are not listed. Some of the results follow.
Would you kindly list normalized growth for each of these compounds?

(Q) Given Cc1ccc(C)c(OCCCC(C)(C)C(=O)O)c1 , state its recorded normalized growth.
(A) 0.941 (inactive)

(Q) Now the compound CC(C)C(C)/C=C/C(C)C1CCC2C3=CC=C4CC(O)CCC4(C)C3CCC21C (stereo not given)
(A) 1.01 (inactive)

(Q) Now the compound CCCCOC(=O)c1ccccc1C(=O)OCc1ccccc1
(A) 0.965 (inactive)

(Q) Now the compound COc1cc(-c2coc3cc(OCc4ccccc4)c(OC)c(O)c3c2=O)cc(O)c1OC
(A) 1 (inactive)

(Q) Now the compound CC(C)C(=O)Nc1ccc([N+](=O)[O-])c(C(F)(F)F)c1
(A) 0.98 (inactive)

(Q) Now the compound Cc1cccc(C(=O)O)c1O
(A) 1.01 (inactive)

(Q) Now the compound CCCCOC(=O)c1ccc(N)cc1
(A) 0.961 (inactive)

(Q) Now the compound O=C1CC2OCC=C3CN4CC[C@]56c7ccccc7N1C5[C@H]2[C@H]3CC46 (stereo not given in full)
(A) 0.995 (inactive)

(Q) Now the compound Cc1c(Cl)cccc1Nc1ccccc1C(=O)O
(A) 0.796 (active)

(Q) Now the compound C=C1C(=O)O[C@@H]2C3O[C@]3(C)CC/C=C(\C)CC[C@@H]12 (stereo not given in full)
(A) 0.934 (inactive)

(Q) Now the compound COC(=O)C[C@H]1C(C)(C)C(=O)[C@@H]2CC3=C(CC[C@]4(C)C3=CC(=O)O[C@H]4c3ccoc3)[C@@]1(C)C2=O
(A) 1.01 (inactive)

(Q) Now the compound CC1(C)NC(=O)N(c2ccc([N+](=O)[O-])c(C(F)(F)F)c2)C1=O
(A) 0.986 (inactive)

(Q) Now the compound CC(=O)OCC[C@H](C)CCC=C(C)C
(A) 1.02 (inactive)

(Q) Now the compound O=C1[C@H](CCC(O)c2ccc(F)cc2)[C@@H](c2ccc(O)cc2)N1c1ccc(F)cc1 (stereo not given in full)
(A) 0.977 (inactive)

(Q) Now the compound CC(=O)Oc1c(C)cccc1C(=O)O
(A) 1.01 (inactive)

(Q) Now the compound CO/N=C(\C(=O)N[C@@H]1C(=O)N2C(C(=O)O)=C(COC(C)=O)CS[C@H]12)c1csc(N)n1
(A) 0.994 (inactive)

(Q) Now the compound Cc1cc(-c2ccccc2)nnc1NCCN1CCOCC1
(A) 0.969 (inactive)

(Q) Now the compound CCC(C)c1cnc(CC(C)C)c(=O)n1O (stereo not given)
(A) 1.01 (inactive)

(Q) Now the compound CC1OC1P(=O)(O)O (stereo not given)
(A) 0.987 (inactive)

(Q) Now the compound CCOC(=O)[C@H](CCc1ccccc1)N[C@@H](C)C(=O)N1[C@H](C(=O)O)C[C@@H]2CCC[C@@H]21
(A) 1.02 (inactive)

====

assayOverview: chemical genetic growth profiling, strain panel (AID 1159580);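 further: tested at 20 µM; growth read once vehicle control cultures reached saturation at 30 °C; 1 = growth at the plate median or of vehicle wells; lower values mean less growth of the strain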
conditionInfo: S. cerevisiae deletion strains, growth OD, locus YPR163C, strain tif3, active compounds read low
Out of some 5,500 compounds screened, about 2,000 (36%) were called active. Not shown: some 18% with an inconclusive outcome. The list shows a part of the results.
Would you kindly list normalized growth for each of these molecules?
In your answer, state the number alone without any accompanying words.

(Q) Given C=C1CCC(OC(C)=O)/C(C)=C/C[C@@H]2[C@@H]1CC2(C)C (stereo partly specified) , state its recorded normalized growth.
(A) 1

(Q) Now the molecule COc1cc2c(cc1OC)C1Cc3ccc(OC)c(OC)c3CN1CC2 (stereo unspecified)
(A) 0.989

(Q) Now the molecule CCNC(=O)CC[C@H](N)C(=O)O
(A) 0.995

(Q) Now the molecule C=C1CCC2C(CC2(C)C)C(=C)CC/C1=N\O (stereo unspecified)
(A) 0.996

(Q) Now the molecule Cc1ccc(C)c(OCCCC(C)(C)C(=O)O)c1
(A) 0.857

(Q) Now the molecule CC(=O)OC1CCC2(C)C(=CC=C3C2CCC2(C)C3CCC2C(C)/C=C/C(C)C(C)C)C1(C)C (stereo unspecified)
(A) 0.978

Cited source for all entries: PubChem BioAssay AID1159580
